Tested on: Pseudomonas aeruginosa
Test: Inhibition of Pseudomonas aeruginosa PBP3 acylation activity by BOCILLIN FL-based assay
In plain terms, low Kinact, meaning strictly below 2 ×10⁵ /M/s, gives class 1, and everything else gives class 0.

Prompt: # check: Kinact < 2 ×10⁵ /M/s for `C[C@H]1[C@H](NC(=O)/C(=N\OC(C)(C)C(=O)O)c2csc(N)n2)C(=O)N1C(=O)NS(=O)(=O)N1C[C@@H](NC(=O)CNC(=O)c2cc(=O)c(O)cn2O)CC1=O`
Completion: class 1

Prompt: # check: Kinact < 2 ×10⁵ /M/s for `C[C@H]1[C@H](NC(=O)/C(=N\OC(C)(C)C(=O)O)c2csc(N)n2)C(=O)N1C(=O)NS(=O)(=O)N1C[C@@H](n2cc(-c3cc(=O)c(O)c[nH]3)nn2)CC1=O`
Completion: class 0

Prompt: # check: Kinact < 2 ×10⁵ /M/s for `C[C@H]1[C@H](NC(=O)/C(=N\OC(C)(C)C(=O)O)c2csc(N)n2)C(=O)N1C(=O)NS(=O)(=O)N1C[C@H](NC(=O)c2cc(=O)c(O)c[nH]2)CC1=O`
Completion: class 0

Prompt: # check: Kinact < 2 ×10⁵ /M/s for `C[C@H]1[C@H](NC(=O)/C(=N\OC(C)(C)C(=O)O)c2csc(N)n2)C(=O)N1C(=O)NS(=O)(=O)N1C[C@@H](NC(=O)c2cc(=O)c(O)cn2O)CC1=O`
Completion: class 0
